molecular target: T1, human GPC3 (Glypican-3) (human, UniProt P51654 25-580); assay: FACS on Huh7 liver cancer cells
T1 construct: whole, on cells; The cell line of each value is named under assay
T1 sequence (P51654 25-580, form in doubt): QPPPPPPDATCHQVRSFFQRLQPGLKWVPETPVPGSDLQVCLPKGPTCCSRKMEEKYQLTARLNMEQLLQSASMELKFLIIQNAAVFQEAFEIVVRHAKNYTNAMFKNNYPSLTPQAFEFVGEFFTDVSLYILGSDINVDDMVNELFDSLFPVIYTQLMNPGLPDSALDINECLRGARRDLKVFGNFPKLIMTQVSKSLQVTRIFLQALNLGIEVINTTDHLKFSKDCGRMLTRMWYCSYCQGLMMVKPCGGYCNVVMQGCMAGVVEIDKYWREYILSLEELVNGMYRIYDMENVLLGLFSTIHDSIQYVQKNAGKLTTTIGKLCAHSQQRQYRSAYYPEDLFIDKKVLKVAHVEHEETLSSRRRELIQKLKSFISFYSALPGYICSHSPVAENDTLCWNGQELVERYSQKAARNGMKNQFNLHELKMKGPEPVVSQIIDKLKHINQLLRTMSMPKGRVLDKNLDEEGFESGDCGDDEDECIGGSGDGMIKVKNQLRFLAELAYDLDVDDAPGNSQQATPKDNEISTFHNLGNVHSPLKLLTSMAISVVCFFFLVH
RECORDED METRIC: EC50 (µg/mL)
One number for each entry, in µg/mL.

What value of measured EC50 is listed for Hu 52H5D3B8-8-mcc-AAQ-Exatecan (ADC-4) (antibody, human IgG1, kappa, DAR 8.0, V domains shown, mcc-AAQ-Exatecan on cysteine thiols freed by reduction of interchain disulfide bonds; DAR 8.0 for the whole antibody; positions not given, also called Hu 52H5D3B8-8-MCC-AAQ-Exa (ADC-4)) VH: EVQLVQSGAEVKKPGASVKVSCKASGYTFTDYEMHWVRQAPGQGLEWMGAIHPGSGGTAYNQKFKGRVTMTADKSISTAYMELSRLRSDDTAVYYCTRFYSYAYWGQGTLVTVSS VL: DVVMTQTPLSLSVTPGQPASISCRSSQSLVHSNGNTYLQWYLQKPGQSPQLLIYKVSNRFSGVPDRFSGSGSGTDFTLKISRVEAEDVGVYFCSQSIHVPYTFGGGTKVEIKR ?
0.0675

Origin of the recorded values: patent EP4775226A1
